- system_tested: human GPR52 (Homo sapiens)
- Sequence (Q9Y2T5 whole entry): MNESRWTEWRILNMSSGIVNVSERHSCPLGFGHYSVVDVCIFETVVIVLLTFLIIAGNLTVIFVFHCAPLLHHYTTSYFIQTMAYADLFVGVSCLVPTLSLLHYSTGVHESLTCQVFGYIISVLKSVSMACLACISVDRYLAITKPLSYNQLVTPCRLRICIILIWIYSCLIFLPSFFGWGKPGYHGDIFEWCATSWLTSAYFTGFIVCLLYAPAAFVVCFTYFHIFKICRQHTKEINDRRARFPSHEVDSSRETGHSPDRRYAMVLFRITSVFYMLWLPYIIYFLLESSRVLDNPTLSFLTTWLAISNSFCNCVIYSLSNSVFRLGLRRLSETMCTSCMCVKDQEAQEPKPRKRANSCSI
- method_summary: HTRF assay for direct cAMP measurement
- conditions: CHO-K1 cells stably expressing recombinant human GPR52, mean EC50
- Experimental: Homogeneous Time-Resolved Fluorescence (HTRF) Assay for Direct cAMP Measurement. HTRF cAMP assays were performed using commercially available assay kits according to the manufacturer's instructions (cAMP Dynamic 2 Assay Kit; #62AM4PEJ, Cisbio Bioassays, Bedford, Mass.). […] Plates were then incubated at room temperature for one hour prior to reading. Time-resolved fluorescence measurements were collected on an EnVision® HTRF plate reader (PerkinElmer, Waltham, Mass.). […]
Assign labels as follows, please: Yes for EC50 below 9 nM; No for EC50 equal to or exceeding 9 nM.

Exercise: For this molecule, is EC50 lower than 9 nM? "O=C(Nc1cc(C(F)(F)F)ncn1)c1nccnc1N1CC(Oc2ccc(F)c(Cl)c2)C1"
Key: No
